# Test system: NCI-H1666
# METHOD_DESCRIPTION: relative viability (nuclei count vs DMSO), 5 days (fraction); higher = more cells survive
# PARTICULARS: first compound 0.1581 µM
METRIC: relative viability

| COMPOUND | NUMBER |
| --- | --- |
| CC1(C)CCC(c2ccc(Cl)cc2)=C(CN2CCN(c3ccc(C(=O)NS(=O)(=O)c4ccc(N[C@H](CCN5CCOCC5)CSc5ccccc5)c(S(=O)(=O)C(F)(F)F)c4)cc3)CC2)C1 [Navitoclax] + NC(=O)Nc1cc(-c2cccc(F)c2)sc1C(=O)N[C@H]1CCCNC1 [AZD7762] (partner 0.2 µM) | 0.861 |
| CC1(C)CCC(c2ccc(Cl)cc2)=C(CN2CCN(c3ccc(C(=O)NS(=O)(=O)c4ccc(N[C@H](CCN5CCOCC5)CSc5ccccc5)c(S(=O)(=O)C(F)(F)F)c4)cc3)CC2)C1 [Navitoclax] + Cc1nc(NC(=O)N2CCC[C@H]2C(N)=O)sc1-c1ccnc(C(C)(C)C(F)(F)F)c1 [Alpelisib] (partner 2 µM) | 0.878 |
| CC1(C)CCC(c2ccc(Cl)cc2)=C(CN2CCN(c3ccc(C(=O)NS(=O)(=O)c4ccc(N[C@H](CCN5CCOCC5)CSc5ccccc5)c(S(=O)(=O)C(F)(F)F)c4)cc3)CC2)C1 [Navitoclax] + CS(=O)(=O)N1CCN(Cc2cc3nc(-c4cccc5[nH]ncc45)nc(N4CCOCC4)c3s2)CC1 [Pictilisib] (partner 1 µM) | 0.394 |
| CC1(C)CCC(c2ccc(Cl)cc2)=C(CN2CCN(c3ccc(C(=O)NS(=O)(=O)c4ccc(N[C@H](CCN5CCOCC5)CSc5ccccc5)c(S(=O)(=O)C(F)(F)F)c4)cc3)CC2)C1 [Navitoclax] + Nc1nc2[nH]cc(CCc3ccc(C(=O)N[C@@H](CCC(=O)O)C(=O)O)cc3)c2c(=O)[nH]1 [Pemetrexed] (partner 0.2 µM) | 0.831 |
| CC1(C)CCC(c2ccc(Cl)cc2)=C(CN2CCN(c3ccc(C(=O)NS(=O)(=O)c4ccc(N[C@H](CCN5CCOCC5)CSc5ccccc5)c(S(=O)(=O)C(F)(F)F)c4)cc3)CC2)C1 [Navitoclax] + C[C@@H](Oc1cc(-c2cnn(C3CCNCC3)c2)cnc1N)c1c(Cl)ccc(F)c1Cl [Crizotinib] (partner 1 µM) | 0.879 |

---

# Test system: RERF-LC-KJ
# METHOD_DESCRIPTION: relative viability (nuclei count vs DMSO), 5 days (fraction); higher = more cells survive
# PARTICULARS: first compound 2.53 µM

| MOLECULE | relative viability |
| --- | --- |
| Oc1nc(-c2ccc(C(F)(F)F)cc2)nc2c1CSCC2 [XAV939] + COc1cccc2cc(-c3nc([C@H]4CC[C@H](C(=O)O)CC4)n4ncnc(N)c34)[nH]c12 [OSI-027] (partner 0.5 µM) | 0.526 |
| C=C1C(=O)O[C@@H](CCCCCCCC)[C@@H]1C(=O)O [C-75] + COc1cccc2cc(-c3nc([C@H]4CC[C@H](C(=O)O)CC4)n4ncnc(N)c34)[nH]c12 [OSI-027] (partner 0.5 µM) | 0.552 |
| Oc1nc(-c2ccc(C(F)(F)F)cc2)nc2c1CSCC2 [XAV939] + C[C@@H](Oc1cc(-c2cnn(C3CCNCC3)c2)cnc1N)c1c(Cl)ccc(F)c1Cl [Crizotinib] (partner 1 µM) | 0.582 |
